We begin with a simple list: items and their reported EC50.
Tested on: L. major promastigotes
Assay: Potency assessment against Leishmania major promastigotes (growth, cell counting)
Type: cell-based
Conditions: Leishmania major; promastigotes, average of three replicates; read-out: Effective concentration (EC50) L. major
propertyLabel: EC50

molecule	testedOn	propertyLabel	result
COC(=O)Nc1ccc(-c2nc(N3CCOCC3)c3cnn(C4CCN(C(=O)OC)CC4)c3n2)cc1 [WYE-354]	L. major promastigotes	EC50	4.1 µM
COc1ccc(-c2ccc3c(N4CCOCC4)nc(N4C[C@@H](C)O[C@@H](C)C4)nc3n2)cc1CO [Ku-0063794]	L. major promastigotes	EC50	> 25 µM
Oc1cccc(-c2nc(N3CCOCC3)c3oc4ncccc4c3n2)c1 [PI-103]	L. major promastigotes	EC50	0.32 µM
O=c1cc(N2CCOCC2)nc2c3ccccc3ccn12 [Compound 401]	L. major promastigotes	EC50	> 25 µM
O=c1cc(N2CCNCC2)oc2c(-c3ccccc3)cccc12 [LY303511]	L. major promastigotes	EC50	> 25 µM
O=c1cc(N2CCOCC2)oc2c(-c3ccccc3)cccc12 [LY294002]	L. major promastigotes	EC50	> 25 µM

---

Tested on: T. brucei brucei Lister 427
Experiment: Potency assessment against T. brucei brucei Lister 427 bloodstream form (AlamarBlue, 72 h)
Assay type: cell-based, Trypanosoma brucei brucei
Settings: Trypanosoma brucei; read-out: activity against T. b. brucei cultures
propertyLabel: EC50 (nM)

molecule	testedOn	propertyLabel	quantitativeResult
Oc1cccc(-c2nc(N3CCOCC3)c3oc4ncccc4c3n2)c1	T. brucei brucei Lister 427	EC50	200

---

Tested on: L. donovani axenic amastigotes
Experiment: Potency assessment against Leishmania donovani axenic amastigotes (growth, cell counting)
Type: cell-based
Settings: Leishmania donovani; Table 2B; read-out: L. donovani Axenic Amastigote IC50, growth inhibition
pIC50: −log10 of the molar value.

compound	pIC50
COc1cccc(-c2nc(N3CCOCC3)c3oc4ncccc4c3n2)c1 [NEU-0000288]	~4.70
c1ccc(-c2nc(N3CCCCC3)c3oc4ncccc4c3n2)cc1 [NEU-0000291]	< 5.00
COc1cccc(-c2nc(N3CCCCC3)c3oc4ncccc4c3n2)c1 [NEU-0000289]	~4.70
c1ccc(-c2nc(N3CCOCC3)c3oc4ncccc4c3n2)cc1 [NEU-0000290]	< 4.70

Source: patent US20130296316A1
